Assign inhibition to each entry below.
Target: Virion infectivity factor (Human immunodeficiency virus type 1 group M subtype B (isolate BH10)) + Virion infectivity factor (Human immunodeficiency virus type 1 group M subtype B (isolate BRU/LAI)) + Virion infectivity factor (Human immunodeficiency virus type 1 group M subtype B (isolate PCV12)) + Virion infectivity factor (Human immunodeficiency virus type 1 group M subtype B (isolate HXB2)) + DNA dC->dU-editing enzyme APOBEC-3G (Homo sapiens) (UniProt P69720+P69721+P69722+P69723+Q9HC16)
Test: inhibitors of Vif binding to APOBEC3G peptide, primary screen, biochemical, TR-FRET, GST-Vif 1-94, biotin-A3G peptide, dose response retest (AID 1117319);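 further: Vif residues 1-94 fused to GST binding biotinylated APOBEC3G peptide 110-148; 0% = full assay without inhibitor and 100% = GST in place of GST-Vif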
Conditions: stronger effect = higher value
About 1,500 (0.58%) of roughly 260,000 compounds were called active. Roughly 5% stayed inconclusive and do not appear here. Only a sample is shown. Potency and affinity values are given separately.
Write the number in % without appending the unit.

Prompt line: Which inhibition value is on record for Cc1cccc(NC(=O)c2sc3nc(-c4ccc(F)cc4)cn3c2C)n1 ?
Response line: -26.2

Prompt line: Can you handle Cc1cc(/C=C2\SC(=S)N(Cc3ccco3)C2=O)c(C)n1-c1ccccc1 next?
Response line: 3.57

Prompt line: Can you handle Oc1cccc(/C=N/n2c(C3CCCCC3)n[nH]c2=S)c1 next?
Response line: 2.47

Prompt line: Can you handle COc1ccccc1C1CCN(C(=O)c2ccccc2)CC1 next?
Response line: 6.08

----------
Molecular target: Virion infectivity factor (Human immunodeficiency virus type 1 group M subtype B (isolate BH10)) + Virion infectivity factor (Human immunodeficiency virus type 1 group M subtype B (isolate BRU/LAI)) + Virion infectivity factor (Human immunodeficiency virus type 1 group M subtype B (isolate PCV12)) + Virion infectivity factor (Human immunodeficiency virus type 1 group M subtype B (isolate HXB2)) + DNA dC->dU-editing enzyme APOBEC-3G (Homo sapiens) (UniProt P69720+P69721+P69722+P69723+Q9HC16)
Assay: inhibitors of Vif binding to APOBEC3G peptide, primary screen, biochemical, TR-FRET, GST-Vif 1-94, biotin-A3G peptide, dose response retest (AID 1117319);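 further: Vif residues 1-94 fused to GST binding biotinylated APOBEC3G peptide 110-148; 0% = full assay without inhibitor and 100% = GST in place of GST-Vif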
Details: stronger effect = higher value
The whole screen tested about 260,000 compounds, of which about 1,500 (0.58%) were called active. Another 5% or so got no clear call; they are omitted. Only a sample is shown. Results with a measured potency or affinity are listed apart.
parameter: inhibition (%)
Write the number in % without appending the unit.

Prompt line: Which inhibition value is on record for N#CCc1ccc(Oc2ncccn2)cc1 ?
Response line: 2.04

Prompt line: Can you handle Cc1ccc(-c2nn(Cc3ccccc3)cc2/C=C/C(=O)O)cc1C next?
Response line: -3.26

Prompt line: Can you handle CCOC(=O)c1oc2cc(C)cc(C)c2c1C next?
Response line: 12.6

Prompt line: Can you handle COc1ccc(/C=C2\S/C(=N/S(=O)(=O)c3cccs3)NC2=O)cc1 next?
Response line: 7.65

Prompt line: Can you handle Nn1c(SCC(=O)Nc2ccc3c(c2)OCO3)nnc1C(F)(F)F next?
Response line: 1.55

Prompt line: Can you handle CCOCCCNC(=O)c1cccc(NC(=O)C2=C(C)OCCS2)c1 next?
Response line: -0.24

Prompt line: Can you handle CN1c2ccc([N+](=O)[O-])cc2N(C)C1(C)c1ccccc1 (stereo not given) next?
Response line: -8.03

Prompt line: Can you handle O=C(c1ccccc1)c1ccc(Oc2ncccn2)cc1 next?
Response line: -0.66

Prompt line: Can you handle CCn1c(SCC(=O)Nc2sc3c(c2C#N)CCCC3)nnc1-c1ccco1 next?
Response line: 3.19

Prompt line: Can you handle CCOC(=O)CN(C(=O)CSc1nnc(COc2ccc(OC)cc2)n1C)c1ccccc1 next?
Response line: 0.19

Prompt line: Can you handle CCN(CC)c1ccc(C(=O)Nn2cnc3ccccc3c2=O)cc1 next?
Response line: -13

Prompt line: Can you handle O=C(COC(=O)c1ccc(NS(=O)(=O)c2cccs2)cc1)NCC1CCCO1 (stereo not given) next?
Response line: -1.37

Prompt line: Can you handle CC(=O)NCCn1c(SCc2ccccc2F)nc2ccccc2c1=O next?
Response line: -4.55

Prompt line: Can you handle C=CCn1c(SCC(=O)NCc2ccc3c(c2)OCO3)nc2scc(-c3ccccc3)c2c1=O next?
Response line: -40.6

Prompt line: Can you handle O=C(Nc1ccc2c(c1)CN(Cc1ccccc1O)CC2)C1CCCO1 (stereo not given) next?
Response line: -4.54

Prompt line: Can you handle Cc1cc(-c2csc(N)n2)c(C)n1Cc1ccco1 next?
Response line: 20.6

Prompt line: Can you handle CCCn1cnc2cc(NCc3ccccc3O)ccc21 next?
Response line: -2.34

Prompt line: Can you handle O=C(O)CCCC(=O)Nc1c(F)c(F)c(F)c(F)c1F next?
Response line: 3.4

Prompt line: Can you handle C#CCOCCOCCOCCNc1nc(N2CCN(C(=O)[C@H](Cc3ccc(O)cc3)n3cc([C@@H](N)C(C)CC)nn3)CC2)nc(N2CCN(C(=O)[C@H](CCCCN)n3cc([C@@H](N)CO)nn3)CC2)n1 (stereo not given in full) next?
Response line: -12.6

Prompt line: Can you handle O=C(NC1CCCC1)C(c1ccc(Cl)cc1)N1CCc2ccccc21 (stereo not given) next?
Response line: 2.15

Prompt line: Can you handle Cn1c(-c2cnn(-c3ccccc3)c2-n2cccc2)n[nH]c1=S next?
Response line: -6.44

Prompt line: Can you handle CC(=O)C(Sc1nc(NC(C)(C)C)nc(N(C)C)n1)C(C)=O next?
Response line: -1.75

Prompt line: Can you handle Cc1nc2nc(-c3ccccc3)[nH]n2c(=O)c1C next?
Response line: 21.8

Prompt line: Can you handle CN[C@@H](C)C(=O)NC[C@H]1O[C@@H](n2cnc3c(N)ncnc32)[C@H](O)[C@@H]1O next?
Response line: -3.01

Prompt line: Can you handle COC(=O)C(C)Sc1nnc(Cc2cc(=O)[nH]c(=O)[nH]2)n1-c1ccc(OC)cc1 (stereo not given) next?
Response line: 7.85

Prompt line: Can you handle Cn1c(N2C(=O)CC(Cc3ccccc3)C2=O)nc2ccccc21 (stereo not given) next?
Response line: -1.11

Prompt line: Can you handle CN(C)/C=C1/Sc2ccccc2C1=O next?
Response line: -7.14

Prompt line: Can you handle O=C(Nc1ccc(Cl)c(Cl)c1)c1ccc(Cl)c(Cl)c1 next?
Response line: 22.2

Prompt line: Can you handle C/C(N)=C(/C#N)C(=O)CSc1nnc(Nc2cccc(C)c2)s1 next?
Response line: 29.1

Prompt line: Can you handle CC(=O)c1ccc(S(=O)(=O)NCc2cccnc2)cc1 next?
Response line: 0.59

Prompt line: Can you handle O=S1(=O)CC(O)C(NCc2ccco2)C1 (stereo not given) next?
Response line: 11.1

Prompt line: Can you handle COC(=O)c1ccc(CNC(=O)c2ccc(NS(=O)(=O)c3ccc4[nH]c(=O)[nH]c4c3)cc2)cc1 next?
Response line: -7.35

Prompt line: Can you handle Cn1[nH]c(C(F)(F)F)c(C=NCc2ccc(Cl)cc2)c1=O next?
Response line: -4.02

Prompt line: Can you handle Cc1nc(C)c(C(=O)C2=C(O)C(=O)N(CCCn3ccnc3)C2c2ccc(Cl)cc2)s1 (stereo not given) next?
Response line: 0.13

Prompt line: Can you handle CC(C)n1cnc2cc(NCc3ccccn3)ccc21 next?
Response line: 14.4
